biological target: human mGluR2 (Homo sapiens (Human), UniProt Q14416); assay: [35S]GTPγS binding assay (Affinity to mGluR2); assay type: biochemical; conditions: cell membrane fraction of HEK293 cells stably expressing human mGluR2; glutamic acid 10 μM; inhibition of specific [35S]GTPγS binding
Sequence (Q14416 19-872): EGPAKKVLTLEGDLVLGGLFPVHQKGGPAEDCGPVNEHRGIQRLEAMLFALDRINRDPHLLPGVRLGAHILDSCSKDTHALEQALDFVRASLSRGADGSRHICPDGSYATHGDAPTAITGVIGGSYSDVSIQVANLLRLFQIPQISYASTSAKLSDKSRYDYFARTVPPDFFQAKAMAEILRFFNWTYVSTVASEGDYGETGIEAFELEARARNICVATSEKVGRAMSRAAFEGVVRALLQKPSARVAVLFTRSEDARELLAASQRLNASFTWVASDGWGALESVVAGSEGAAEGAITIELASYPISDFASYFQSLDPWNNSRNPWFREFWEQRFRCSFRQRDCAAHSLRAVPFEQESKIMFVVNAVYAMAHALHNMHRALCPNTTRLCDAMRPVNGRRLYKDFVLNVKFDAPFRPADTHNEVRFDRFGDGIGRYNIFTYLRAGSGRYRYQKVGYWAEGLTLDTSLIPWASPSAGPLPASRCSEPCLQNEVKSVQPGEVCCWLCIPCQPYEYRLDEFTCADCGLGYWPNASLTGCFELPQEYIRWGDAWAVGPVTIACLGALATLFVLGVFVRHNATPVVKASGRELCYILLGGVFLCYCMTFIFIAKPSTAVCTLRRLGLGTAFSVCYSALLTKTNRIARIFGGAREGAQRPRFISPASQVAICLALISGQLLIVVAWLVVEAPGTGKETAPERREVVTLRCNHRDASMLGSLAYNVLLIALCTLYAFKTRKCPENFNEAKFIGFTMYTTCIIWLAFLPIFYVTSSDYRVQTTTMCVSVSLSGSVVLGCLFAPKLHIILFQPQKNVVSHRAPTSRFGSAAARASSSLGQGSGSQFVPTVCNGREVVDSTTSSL
OBSERVED PROPERTY: IC50 (nM)

{"STRUCTURE AS SMILES": "Cc1cc(-c2nc(-c3ccc(Cl)c(OC(F)F)c3)n3c2CCOCC3)cc(C)n1", "IC50 (nM)": 72.5}
{"STRUCTURE AS SMILES": "Cc1cc(-c2nc(-c3ccc(OC(F)F)c(F)c3)n3c2CCO[C@H](C)C3)cc(C)n1", "IC50 (nM)": 16.1}
{"STRUCTURE AS SMILES": "Cc1cc(-c2nc(-c3ccc(OC(F)(F)F)c(F)c3)n3c2CCO[C@H](CF)C3)ccn1", "IC50 (nM)": 15.2}

[A] Cc1cc(-c2nc(-c3ccc(OC(F)(F)F)c(C)c3)n3c2CCO[C@H](C)C3)cc(CF)n1
[B] Cc1cc(-c2nc(-c3ccc(OC(F)(F)F)c(F)c3)n3c2CCO[C@H](CF)C3)cc(CF)n1
## Input Which entry shows the lesser value of IC50 here, A or B ? Returns: label corresponding to the selected item.
## Output A

[P] Cc1cc(-c2nc(-c3ccc(OC(F)(F)F)c(F)c3)n3c2CCO[C@H](C)C3)cc(CO)n1
[Q] Cc1cc(-c2nc(-c3ccc(OC(F)(F)F)c(F)c3)n3c2CCO[C@H](CF)C3)cc(C)n1
[R] Cc1cc(-c2nc(-c3ccc(OC(F)F)c(C)c3)n3c2CCO[C@H](C)C3)cc(CF)n1
[S] Cc1cc(-c2nc(-c3ccc(OC(F)F)c(CF)c3)n3c2CCO[C@H](C)C3)cc(C)n1
## Input Please put the entries in order of rising IC50. When ranking, write the labels in the order the request describes.
## Output S, R, Q, P
(S: 1.9 nM, R: 5.2 nM, Q: 9.4 nM, P: 100 nM)

[1] CCOc1ccc(-c2nc(-c3cc(C)nc(C)c3)c3n2CCOCC3)cc1Cl
[2] Cc1cc(-c2nc(-c3ccc(OC(F)(F)F)c(C#N)c3)n3c2CCO[C@H](CF)C3)ccn1
[3] COc1cc(-c2nc(-c3ccnc(C)c3)c3n2C[C@@H](CF)OCC3)ccc1C(F)F
[4] Cc1cc(-c2nc(-c3ccc(C)c(OCC4CC4)c3)n3c2CCO[C@H](C)C3)cc(C)n1
## Input # desc sort on IC50 across 4 molecules When ranking, write the labels in the order the request describes.
## Output 1, 3, 4, 2
(1: 48 nM, 3: 24.1 nM, 4: 10.5 nM, 2: 3.8 nM)

----------
target: human mGluR2 (Homo sapiens (Human), UniProt Q14416); test: [35S]GTPγS binding assay (Affinity to mGluR2); type: biochemical; details: cell membrane fraction of HEK293 cells stably expressing human mGluR2; glutamic acid 10 μM; inhibition of specific [35S]GTPγS binding
pIC50: −log10 of the molar value.
OBSERVED PROPERTY: pIC50

{"STRUCTURE AS SMILES": "COc1cc(-c2nc(-c3cc(C)nc(C)c3)c3n2C[C@@H](CF)OCC3)ccc1OC(F)F", "SYSTEM TESTED": "human mGluR2 (Homo sapiens (Human), UniProt Q14416)", "pIC50": 7.80}
{"STRUCTURE AS SMILES": "Cc1cc(-c2nc(-c3ccc(OC(F)(F)F)c(CO)c3)n3c2CCO[C@H](C)C3)ccn1", "SYSTEM TESTED": "human mGluR2 (Homo sapiens (Human), UniProt Q14416)", "pIC50": 7.70}

[P] COc1cc(-c2nc(-c3cc(C)nc(C(F)F)c3)c3n2C[C@@H](CF)OCC3)ccc1OC(F)F
[Q] CCOc1cc(-c2nc(-c3ccnc(C)c3)c3n2CCOCC3)ccc1CC
[R] Cc1cc(-c2nc(-c3ccc(OC(F)F)c(CF)c3)n3c2CCO[C@H](C)C3)ccn1
[S] Cc1cc(-c2nc(-c3ccc(OC4CC4)c(Cl)c3)n3c2CCO[C@H](CF)C3)cc(C)n1
[T] COc1cc(-c2nc(-c3ccnc(C)c3)c3n2C[C@@H](CF)OCC3)ccc1OC(F)F
## Input Please put the entries in order of rising pIC50. When ranking, write the labels in the order the request describes.
## Output T, Q, P, R, S
(T: 7.43, Q: 7.68, P: 8.05, R: 8.54, S: 8.74)

[1] Cc1cc(-c2nc(-c3ccc(OC(F)F)c(C)c3)n3c2CCO[C@H](CF)C3)cc(CF)n1
[2] COc1cc(-c2nc(-c3cc(C)nc(C)c3)c3n2C[C@@H](C)OCC3)ccc1OC(F)F
## Input Which entry shows the lesser value of pIC50 here, 1 or 2 ? Returns: label corresponding to the selected item.
## Output 2
(2: 8.02, 1: 8.22)

[a] Cc1cc(-c2nc(-c3ccc(OC(F)(F)F)c(CO)c3)n3c2CCO[C@H](C)C3)cc(C)n1
[b] COc1ccc(-c2nc(-c3cc(C)nc(C(F)F)c3)c3n2C[C@@H](C)OCC3)cc1Cl
[c] COc1cc(-c2nc(-c3cc(C)nc(CF)c3)c3n2C[C@@H](CF)OCC3)ccc1C(F)(F)F
[d] Cc1cc(-c2nc(-c3ccc(C)c(C(F)(F)F)c3)n3c2CCO[C@H](C)C3)cc(C)n1
## Input Please put the entries in order of rising pIC50. When ranking, write the labels in the order the request describes.
## Output b, a, d, c

----------
target: human mGluR2 (Homo sapiens (Human), UniProt Q14416); assay: [35S]GTPγS binding assay (Affinity to mGluR2); type: biochemical; details: cell membrane fraction of HEK293 cells stably expressing human mGluR2; glutamic acid 10 μM; inhibition of specific [35S]GTPγS binding
OBSERVED PROPERTY: IC50 (nM)

[I] Cc1cc(-c2nc(-c3ccc(OC(F)(F)F)c(C)c3)n3c2CCOCC3)cc(CF)n1
[II] COc1cc(-c2nc(-c3cc(C)nc(C(F)F)c3)c3n2C[C@@H](C)OCC3)ccc1OC(F)F
[III] Cc1cc(-c2nc(-c3ccc(OC(F)F)c(Cl)c3)n3c2CCO[C@H](CF)C3)cc(C)n1
## Input Order them by IC50, ascending: the molecules above. When ranking, write the labels in the order the request describes.
## Output III, II, I
(III: 2 nM, II: 5 nM, I: 13.2 nM)

----------
target: human mGluR2 (Homo sapiens (Human), UniProt Q14416); test: [35S]GTPγS binding assay (Affinity to mGluR2); type: biochemical; conditions: cell membrane fraction of HEK293 cells stably expressing human mGluR2; glutamic acid 10 μM
OBSERVED PROPERTY: IC50 (nM)

{"STRUCTURE AS SMILES": "Cc1cc(-c2nc(-c3ccc(OC(F)(F)F)cc3)n3c2CCO[C@H](CF)C3)ccn1", "IC50 / nM": 25.5}
{"STRUCTURE AS SMILES": "COc1ccc(-c2nc(-c3cc(C)nc(C)c3)c3n2C[C@@H](C)OCC3)cc1C", "IC50 / nM": 12.3}

[P] Cc1cc(-c2nc(-c3ccc(Cl)c(C(F)(F)F)c3)n3c2CCO[C@H](C)C3)cc(C)n1
[Q] Cc1cc(-c2nc(-c3ccc(OCc4ccccc4)c(F)c3)n3c2CCOCC3)cc(C)n1
[R] Cc1cc(-c2nc(-c3ccc(OC(F)F)c(Cl)c3)n3c2CCO[C@H](C)C3)cc(C)n1
[S] COc1cc(-c2nc(-c3cc(C)nc(C)c3)c3n2CCOCC3)ccc1C
## Input # desc sort on IC50 across 4 compounds When ranking, write the labels in the order the request describes.
## Output S, Q, P, R
(S: 65.6 nM, Q: 11.4 nM, P: 5.7 nM, R: 2.8 nM)

----------
molecular target: human mGluR2 (Homo sapiens (Human), UniProt Q14416); assay: [35S]GTPγS binding assay (Affinity to mGluR2); type: biochemical; conditions: cell membrane fraction of HEK293 cells stably expressing human mGluR2; glutamic acid 10 μM
OBSERVED PROPERTY: IC50 (nM)

[P] Cc1cc(-c2nc(-c3ccc(OC(F)F)c(F)c3)n3c2CCOCC3)cc(C)n1 [Example 119]
[Q] Cc1cc(-c2nc(-c3ccc(OC(F)(F)F)cc3)n3c2CCO[C@H](C)C3)cc(C)n1 [Example 51]
[R] Cc1cc(-c2nc(-c3ccc(OC(F)(F)F)c(C)c3)n3c2CCO[C@H](C)C3)ccn1 [Example 9]
[S] Cc1cc(-c2nc(-c3ccc(C(F)(F)F)c(C)c3)n3c2CCO[C@H](C)C3)cc(C)n1 [Example 124]
## Input Please put the 4 compounds above in a list ordered by falling IC50. When ranking, write the labels in the order the request describes.
## Output P, Q, S, R
(P: 31.8 nM, Q: 7.8 nM, S: 4.5 nM, R: 1.9 nM)
